Cited source: patent US7851637B2

- target of assay: Bcl-xL (Homo sapiens, UniProt Q07817)
- Sequence (Q07817 whole entry): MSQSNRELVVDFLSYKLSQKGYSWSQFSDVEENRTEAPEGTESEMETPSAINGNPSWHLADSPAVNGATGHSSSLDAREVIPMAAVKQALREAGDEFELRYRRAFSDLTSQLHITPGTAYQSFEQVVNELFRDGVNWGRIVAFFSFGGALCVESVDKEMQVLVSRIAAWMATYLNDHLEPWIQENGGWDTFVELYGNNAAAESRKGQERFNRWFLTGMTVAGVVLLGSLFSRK
- protocol details: Bcl-xL binding affinity analysis (fluorescence polarization binding assay)
- Design: scale not given here
quantity name: Bcl-XL binding affinity Ki

compound	quantity name	reported value
C[C@@H](O)[C@H]1[C@@H](CO)ON(Cc2cccc(C#CC(O)c3ccc(-c4ccccn4)cc3)c2)[C@H]1C(=O)NCCCN(C)c1ccccc1 (stereo partly drawn) [Compound 252]	Bcl-XL binding affinity Ki	♯
C[C@@H]1[C@@H](NC(=O)[C@@H]2[C@H]([C@H](C)O)[C@H](CO)ON2Cc2cccc(-c3cccc(C(=O)NCCCNC(=O)OC(C)(C)C)c3)c2)C[C@H]2C[C@@H]1C2(C)C [Compound 154]	Bcl-XL binding affinity Ki	♯♯
C[C@@H]1[C@@H](NC(=O)[C@@H]2C([C@H](C)O)[C@H](CO)ON2Cc2cccc(CN(CCN(C)C)Cc3ccccc3-c3ccccc3F)c2)C[C@H]2C[C@@H]1C2(C)C (stereo partly drawn) [Compound 343]	Bcl-XL binding affinity Ki	♯

====

pKi, Bcl-2 (Homo sapiens, UniProt P10415), per-entry values.
pKi: −log10 of the molar value.
quantity name: pKi

molecule	quantity name	reported value
CC(O)C1C(CO)ON(Cc2cccc(CN(CCN3CCCCC3)Cc3ccccc3)c2)C1C(=O)NC1CC2CC(C1C)C2(C)C (stereo not drawn) [Compound 433]	pKi	> 6.10
CC(C)CC(CN(C)C)N(Cc1cccc(CN2OC(CO)C(C(C)O)C2C(=O)NC2CC3CC(C2C)C3(C)C)c1)Cc1ccccc1Br (stereo not drawn) [Compound 309]	pKi	> 6.10
CC(O)C1C(CO)ON(Cc2cccc(C(=O)NC(CCc3ccccc3)CN(C)C)c2)C1C(=O)NC1CC2CC(C1C)C2(C)C (stereo not drawn) [Compound 511]	pKi	> 6.10
CCN1CCC[C@@H]1CNC(=O)c1cccc(-c2cccc(CN3O[C@@H](CO)[C@@H]([C@H](C)O)[C@H]3C(=O)N[C@H]3C[C@H]4C[C@@H]([C@@H]3C)C4(C)C)c2)c1 [Compound 106]	pKi	> 6.10
COc1c(CN2O[C@@H](CO)[C@@H]([C@H](C)O)[C@H]2C(=O)N[C@H]2C[C@H]3C[C@@H]([C@@H]2C)C3(C)C)cccc1-c1cccc(C(=O)N[C@@H](CC2CCCCC2)CN(C)C)c1 [Compound 487]	pKi	> 6.10
CC(C)C[C@@H](CN(C)C)N(Cc1ccccc1)Cc1cccc(CN2O[C@@H](CO)[C@@H]([C@H](C)O)[C@H]2C(=O)NCCCn2ccnc2)c1 [Compound 529]	pKi	4.30 to 5.22

====

- target of assay: Bcl-2 (Homo sapiens, UniProt P10415)
- Sequence (P10415 whole entry): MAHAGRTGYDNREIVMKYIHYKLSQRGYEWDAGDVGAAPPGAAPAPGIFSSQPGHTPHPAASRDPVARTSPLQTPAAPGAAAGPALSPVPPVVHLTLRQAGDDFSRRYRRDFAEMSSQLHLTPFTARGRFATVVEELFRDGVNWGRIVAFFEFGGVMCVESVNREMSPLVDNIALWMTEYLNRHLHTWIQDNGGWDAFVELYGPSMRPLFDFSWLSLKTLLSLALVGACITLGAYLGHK
- protocol details: Bcl-2 binding affinity analysis (fluorescence polarization binding assay)
pKi: −log10 of the molar value.
pKi listing for selected molecules.
quantity name: pKi

molecule	quantity name	reported value
C[C@@H]1[C@@H](NC(=O)[C@@H]2C([C@H](C)O)[C@H](CO)ON2Cc2cccc(CN(CCN(C)C)CC3CC4C=CC3C4)c2)C[C@H]2C[C@@H]1C2(C)C (stereo partly drawn)	pKi	> 6.10
CC(O)C1C(CO)ON(Cc2cccc(CN3CCN(C(=O)OCc4ccccc4)CC3)c2)C1C(=O)NC1CC2CC(C1C)C2(C)C (stereo not drawn)	pKi	5.22 to 6.10
CC(C)C[C@H](CN(C)C)NC(=O)c1cccc(-c2cccc(CN3O[C@@H](CO)[C@@H]([C@H](C)O)[C@H]3C(=O)N[C@H]3C[C@H]4C[C@@H]([C@@H]3C)C4(C)C)c2)c1	pKi	5.22 to 6.10

====

- target of assay: Bcl-xL (Homo sapiens, UniProt Q07817)
- protocol details: Bcl-xL binding affinity analysis (fluorescence polarization binding assay)
- Set-up: scale not given here

compound	target of assay	Bcl-XL binding affinity Ki
CCOc1cccc(CN(Cc2cccc(CN3O[C@@H](CO)C([C@H](C)O)[C@H]3C(=O)N[C@H]3C[C@H]4C[C@@H]([C@@H]3C)C4(C)C)c2)[C@@H](CC(C)C)CN(C)C)c1O (some centres unmarked)	Bcl-xL (Homo sapiens, UniProt Q07817)	♯
CCN(CC)CCNC(=O)c1cccc(-c2cccc(CN3O[C@@H](CO)[C@@H]([C@H](C)O)[C@H]3C(=O)N[C@H]3C[C@H]4C[C@@H]([C@@H]3C)C4(C)C)c2)c1	Bcl-xL (Homo sapiens, UniProt Q07817)	♯
C[C@@H]1[C@@H](NC(=O)[C@@H]2C([C@H](C)O)[C@H](CO)ON2Cc2cccc(CN(CCN(C)C)Cc3ccncc3)c2)C[C@H]2C[C@@H]1C2(C)C (some centres unmarked)	Bcl-xL (Homo sapiens, UniProt Q07817)	♯
C[C@@H]1[C@@H](NC(=O)[C@@H]2C([C@H](C)O)[C@H](CO)ON2Cc2cccc(CN(CCN(C)C)Cc3ccccc3Cl)c2)C[C@H]2C[C@@H]1C2(C)C (some centres unmarked)	Bcl-xL (Homo sapiens, UniProt Q07817)	♯
C[C@@H]1C(NC(=O)[C@@H]2[C@H]([C@H](C)O)[C@H](CO)ON2Cc2cccc(-c3ccc(NC(=O)N(C)C)cc3)c2)C[C@@H]2CC1C2(C)C (some centres unmarked)	Bcl-xL (Homo sapiens, UniProt Q07817)	♯♯

====

- Test system: Human Pancreatic Cancer Cell Line Panc1
- protocol details: Cell death assay (propidium iodide/Hoechst) in Panc1 cells with or without camptothecin
- Type: cell-based
- experimental conditions: with 3 uM Camptothecin, 72 hours, % cell death by propidium iodide/Hoechst, read-out: Panc1 + Cpt IC50
pIC50: −log10 of the molar value.
quantity name: pIC50

> print(dat)
                                   compound  reported.value
1  CC(O)C1C(CO)ON(Cc2cccc(CN(CCN(C)C)Cc3ccccc3C(F)(F)F)c2)C1C(=O)NC1CC2CC(C1C)C2(C)C (stereo not drawn) [Compound 357]          < 5.60
2  CC(C)CC(CN(C)C)N(Cc1cccc(CN2OC(CO)C(C(C)O)C2C(=O)NC2CC3CC(C2C)C3(C)C)c1)Cc1ccccc1C#N (stereo not drawn) [Compound 314]          < 5.60
3  CC(O)C1C(CO)ON(Cc2cccc(CNC(CC3CCCCC3)CN(C)C)c2)C1C(=O)NC1CC2CC(C1C)C2(C)C (stereo not drawn) [Compound 444]          < 5.60

====

- Test system: Human Pancreatic Cancer Cell Line Panc1
- protocol details: Cell death assay (propidium iodide/Hoechst) in Panc1 cells with or without camptothecin
- Type: cell-based
- experimental conditions: with 3 uM Camptothecin, 72 hours, % cell death by propidium iodide/Hoechst, read-out: Panc1 + Cpt IC50
pIC50: −log10 of the molar value.
pIC50 listing for selected molecules.
quantity name: pIC50

> print(dat)
                                   molecule                          target.of.assay  reported.value
1  CC(O)C1C(CO)ON(Cc2cccc(CN(Cc3ccccc3)C(CN(C)C)c3ccccc3)c2)C1C(=O)NC1CC2CC(C1C)C2(C)C (stereo not drawn)  Human Pancreatic Cancer Cell Line Panc1    5.60 to 5.74
2  C[C@@H]1[C@@H](NC(=O)[C@@H]2[C@H]([C@H](C)O)[C@H](CO)ON2Cc2cccc(C#CC3(NC(=O)C4CCN(C)CC4)CCCCC3)c2)CC2C[C@@H]1C2(C)C  Human Pancreatic Cancer Cell Line Panc1    5.74 to 5.89
3  CC(O)C1C(CO)ON(Cc2cccc(CN(CCN(C)C)CC3=CCCCC3)c2)C1C(=O)NC1CC2CC(C1C)C2(C)C (stereo not drawn)  Human Pancreatic Cancer Cell Line Panc1    5.74 to 5.89

====

- target of assay: Bcl-xL (Homo sapiens, UniProt Q07817)
- protocol details: Bcl-xL binding affinity analysis (fluorescence polarization binding assay)
- Design: scale not given here

compound	Bcl-XL binding affinity Ki
CC(O)C1C(CO)ON(Cc2cccc(NC(=O)NC(CCc3ccccc3)CN(C)C)c2)C1C(=O)NC1CC2CC(C1C)C2(C)C (stereo not drawn) [Compound 573]	♯
CC(C)CC(CN(C)C)N(Cc1cccc(CN2OC(CO)C(C(C)O)C2C(=O)NC2CC3CC(C2C)C3(C)C)c1)Cc1ccccc1N1CCN(C)CC1 (stereo not drawn) [Compound 315]	♯
CC(C)CC(CN(C)C)N(Cc1cccc(CN2OC(CO)C(C(C)O)C2C(=O)NC2CC3CC(C2C)C3(C)C)c1)Cc1ccccc1F (stereo not drawn) [Compound 312]	♯
CCC(C)C(CN(C)C)N(Cc1cccc(CN2OC(CO)C(C(C)O)C2C(=O)NC2CC3CC(C2C)C3(C)C)c1)Cc1c(O)cccc1F (stereo not drawn) [Compound 440]	♯
C[C@@H]1[C@@H](NC(=O)[C@@H]2[C@H]([C@H](C)O)[C@H](CO)ON2Cc2cccc(-c3ccc(C(=O)N(C)C)cc3[N+](=O)[O-])c2)C[C@H]2C[C@@H]1C2(C)C [Compound 285]	♯
C[C@@H]1[C@@H](NC(=O)[C@@H]2[C@H]([C@H](C)O)[C@H](CO)ON2Cc2cccc(-c3cccc(O)c3)c2)C[C@H]2C[C@@H]1C2(C)C [Compound 147]	♯♯
